Provide the recorded pEC50 for the entries that follow.
# measuredOn: GLP-1R (Homo sapiens)
# Construct: host or cells: GLP-1R CRE-bla CHO-K1 cells
# experimentSummary: EC20 GLP-1(9-36) PAM cAMP assay: dose response of compound in the presence of fixed concentration of GLP-1(9-36)
# Format: cell-based
# settings: dose response of compound in presence of fixed concentration of GLP-1(9-36), GLP-1R CRE-bla CHO-K1 cells, read-out: EC20 GLP-1(9-36) PAM EC50
pEC50: −log10 of the molar value.

Inquiry: Fill blank: measured pEC50 of the molecule CCCCCCCOc1ccc(-c2cnc(-c3ccc(C[C@H](NC(=O)c4ccc(C(C)(C)C)cc4)C(=O)NCCC(=O)O)cc3)nc2)cc1Cl is ____.
Reply text: 5.60 to 6.10

Inquiry: Fill blank: measured pEC50 of the molecule CC(C)(C)c1ccc(C(=O)N[C@@H](Cc2ccc(-c3ncc(-c4ccc(OCC(F)(F)F)cc4)cn3)cc2)C(=O)NCCC(=O)O)cc1 is ____.
Reply text: 5.30 to 5.60

Inquiry: Fill blank: measured pEC50 of the molecule CCCCCCCOc1ccc(-c2cnc(-c3ccc(C[C@H](NC(=O)c4ccc(C(C)(C)C)cc4)C(=O)NC4(CC(=O)O)CCOCC4)cc3)nc2)cc1 is ____.
Reply text: 5.60 to 6.10

Inquiry: Fill blank: measured pEC50 of the molecule CC(C)(C)c1ccc(C(=O)N[C@@H](Cc2ccc(-c3ncc(-c4ccc(-c5cc(Cl)cc(Cl)c5)cc4F)cn3)cc2)C(=O)N2CC(C(=O)O)C2)s1 is ____.
Reply text: > 6.10

Inquiry: Fill blank: measured pEC50 of the molecule CC(C)c1cccc(-c2cnc(-c3ccc(C[C@H](NC(=O)c4ccc(C(C)(C)C)s4)C(=O)N[C@H](C)C(=O)O)cc3)nc2)c1 is ____.
Reply text: 5.00 to 5.30

Inquiry: Fill blank: measured pEC50 of the molecule CC(C)(C)c1ccc(C(=O)N[C@@H](Cc2ccc(-c3ncc(-c4ccc(C5CCC(F)(F)CC5)cc4)cn3)cc2)C(=O)N2CC(C(=O)O)C2)s1 is ____.
Reply text: > 6.10

* * *

# measuredOn: GLP-1R (Homo sapiens, UniProt P43220)
# Construct: host or cells: GLP-1R CRE-bla CHO-K1 cells
# Sequence (P43220 24-463): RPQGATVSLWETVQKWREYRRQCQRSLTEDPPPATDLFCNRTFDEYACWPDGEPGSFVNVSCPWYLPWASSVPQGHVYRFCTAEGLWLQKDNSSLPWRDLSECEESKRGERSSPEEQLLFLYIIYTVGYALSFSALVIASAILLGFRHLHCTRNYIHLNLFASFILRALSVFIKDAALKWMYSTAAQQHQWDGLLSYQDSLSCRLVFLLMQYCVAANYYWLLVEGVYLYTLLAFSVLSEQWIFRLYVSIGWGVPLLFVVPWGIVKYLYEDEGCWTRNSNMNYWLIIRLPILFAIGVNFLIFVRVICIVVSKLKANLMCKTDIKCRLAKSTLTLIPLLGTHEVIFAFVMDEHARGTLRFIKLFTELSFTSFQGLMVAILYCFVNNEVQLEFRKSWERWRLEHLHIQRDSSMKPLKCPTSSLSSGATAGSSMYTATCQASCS
# Sequence (P01275 100-127 partner limits assumed): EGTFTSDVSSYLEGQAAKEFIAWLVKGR
# experimentSummary: EC20 GLP-1(9-36) PAM cAMP assay: dose response of compound in the presence of fixed concentration of GLP-1(9-36)
# Type: cell-based
# settings: dose response of compound in presence of fixed concentration of GLP-1(9-36), GLP-1R CRE-bla CHO-K1 cells, read-out: EC20 GLP-1(9-36) PAM EC50
propertyName: EC50

Inquiry: Fill blank: measured EC50 of the compound CCCCCCCOc1ccc(-c2cnc(-c3ccc(C[C@H](NC(=O)c4ccc(C(C)(C)C)c(OC)c4)C(=O)N4CC(C(=O)O)C4)cc3)nc2)cc1 [Compound 1120] is ____.
Reply text: 2.5 to 5 µM

Inquiry: Fill blank: measured EC50 of the compound CCCCCCCOc1ccc(-c2cnc(-c3ccc(C[C@H](NC(=O)c4ccc(C(C)(C)C)s4)C(=O)NC4CCCC(C(=O)O)C4)cc3)nc2)cc1 (stereo partly drawn) [Compound 535] is ____.
Reply text: 5 to 10 µM

Inquiry: Fill blank: measured EC50 of the compound CC(C)Oc1cc(-c2cnc(-c3ccc(C[C@H](NC(=O)c4ccc(C(C)(C)C)s4)C(=O)N[C@H](C)C(=O)O)cc3)nc2)ccc1OC(F)(F)F [Compound 1013] is ____.
Reply text: 5 to 10 µM

Inquiry: Fill blank: measured EC50 of the compound CCCCCCCOc1ccc(-c2cnc(-c3ccc(C[C@H](NC(=O)c4ccc(C(C)(C)C)cc4)C(=O)N[C@@H](CC(=O)Nc4nnn[nH]4)C(=O)O)cc3)nc2)cc1 [Compound 510] is ____.
Reply text: 2.5 to 5 µM

Inquiry: Fill blank: measured EC50 of the compound CCCCCCCOc1ccc(-c2cnc(-c3ccc(C[C@H](NC(=O)c4ccc(C(C)(C)C)s4)C(=O)NC(C(=O)O)C(O)C(C)(C)C)cc3)nc2)cc1 (stereo partly drawn) [Compound 918] is ____.
Reply text: 5 to 10 µM

Inquiry: Fill blank: measured EC50 of the compound CCCCCCCOc1ccc(-c2cnc(-c3ccc(C[C@H](NC(=O)c4ccc(C(C)(C)C)s4)C(=O)N4CC(C(N)=O)C4)cc3)nc2)cc1 [Compound 972] is ____.
Reply text: 5 to 10 µM

Inquiry: Fill blank: measured EC50 of the compound CCCCCCCOc1ccc(N2CCN(c3ccc(C[C@H](NC(=O)c4ccc(C(C)(C)C)cc4)C(=O)N[C@H](C)C(=O)O)cc3)CC2)cc1 [Compound 804] is ____.
Reply text: 0.8 to 2.5 µM

Inquiry: Fill blank: measured EC50 of the compound CC(C)CCCCOc1ccc(-c2cnc(-c3ccc(C[C@H](NC(=O)c4ccc(C(C)(C)C)s4)C(=O)NC(C(=O)O)C(O)c4ccccc4)cc3)nc2)cc1 (stereo partly drawn) [Compound 923] is ____.
Reply text: 0.8 to 2.5 µM

Inquiry: Fill blank: measured EC50 of the compound CCCCCCCOc1ccc2cc(-c3ccc(C[C@H](NC(=O)c4ccc(C(C)(C)C)cc4)C(=O)N[C@H](C)C(=O)O)cc3)ncc2c1 [Compound 808] is ____.
Reply text: 2.5 to 5 µM

Inquiry: Fill blank: measured EC50 of the compound CC(C)c1ccc(-c2cnc(-c3ccc(C[C@H](NC(=O)c4ccc(C(C)(C)C)s4)C(=O)N[C@H](C)C(=O)O)cc3)nc2)cc1 [Compound 1034] is ____.
Reply text: 2.5 to 5 µM

Inquiry: Fill blank: measured EC50 of the compound CCCCCOc1ccc(-c2cnc(-c3ccc(C[C@H](NC(=O)c4ccc(C(C)(C)C)s4)C(=O)N[C@H](C)C(=O)O)cc3)nc2)cc1 [Compound 734] is ____.
Reply text: 0.8 to 2.5 µM

Inquiry: Fill blank: measured EC50 of the compound CCCOc1ccc(-c2cnc(-c3ccc(C[C@H](NC(=O)c4ccc(C(C)(C)C)s4)C(=O)N[C@H](C)C(=O)O)cc3)nc2)cc1 [Compound 732] is ____.
Reply text: 0.8 to 2.5 µM

* * *

# measuredOn: GLP-1R (Homo sapiens)
# Construct: host or cells: GLP-1R CRE-bla CHO-K1 cells
# experimentSummary: EC20 GLP-1(9-36) PAM cAMP assay: dose response of compound in the presence of fixed concentration of GLP-1(9-36)
# Assay type: cell-based
# settings: GLP-1R CRE-bla CHO-K1 cells, compound dose response with fixed concentration of GLP-1(9-36), read-out: EC20 GLP-1(9-36) PAM EC50
Provide the recorded EC50 for the entries that follow.

Inquiry: Fill blank: measured EC50 of the molecule CC(C)(C)c1ccc(C(=O)N[C@@H](Cc2ccc(-c3ncc(-c4ccc(-c5ccc(F)cc5)cc4F)cn3)cc2)C(=O)N2CC(C(=O)O)C2)s1 [Compound 1213] is ____.
Reply text: < 800 nM

Inquiry: Fill blank: measured EC50 of the molecule CCCOc1ccc(-c2ccc(-c3cnc(-c4ccc(C[C@H](NC(=O)c5ccc(C(C)(C)C)s5)C(=O)O)cc4)nc3)c(F)c2)cc1 [Compound 1360] is ____.
Reply text: 2500 to 5000 nM

Inquiry: Fill blank: measured EC50 of the molecule CC(C)(C)c1ccc(C(=O)N[C@@H](Cc2ccc(-c3ncc(-c4ccc(-c5ccc(F)cc5)cc4)cn3)cc2)C(=O)O)s1 [Compound 1354] is ____.
Reply text: 2500 to 5000 nM

Inquiry: Fill blank: measured EC50 of the molecule CC(C)(C)c1ccc(C(=O)NC(Cc2ccc(-c3ncc(N4CCC(C#N)(c5ccccc5)CC4)cn3)cc2)C(=O)N2CC(C(=O)O)C2)s1 (stereo not drawn) [Compound 1423] is ____.
Reply text: 800 to 2500 nM

Inquiry: Fill blank: measured EC50 of the molecule CCC[C@H]1CC[C@H](C2CCN(c3cnc(-c4ccc(C[C@H](NC(=O)c5ccc(C(C)(C)C)s5)C(=O)N[C@@H](CN)C(=O)O)cc4)nc3)CC2)CC1 [Compound 1472] is ____.
Reply text: < 800 nM

Inquiry: Fill blank: measured EC50 of the molecule CCC[C@H]1CC[C@H](c2ccc(-c3cnc(-c4ccc(C[C@H](NC(=O)c5ccc(C(C)(C)C)s5)C(=O)O)cc4)nc3)cc2)CC1 [Compound 1346] is ____.
Reply text: < 800 nM

Inquiry: Fill blank: measured EC50 of the molecule C[C@@H](NC(=O)[C@H](Cc1ccc(-c2ncc(/C=C/CCCCc3ccccc3)cn2)cc1)NC(=O)c1ccc(C(C)(C)C)s1)C(=O)O [Compound 1253] is ____.
Reply text: < 800 nM

Inquiry: Fill blank: measured EC50 of the molecule CC(=O)c1ccc(-c2ccc(-c3cnc(-c4ccc(C[C@H](NC(=O)c5ccc(C(C)(C)C)s5)C(=O)N[C@H](C)C(=O)O)cc4)nc3)cc2)cc1 [Compound 1292] is ____.
Reply text: < 800 nM

Inquiry: Fill blank: measured EC50 of the molecule CCCCCc1ccc(-c2ccc(-c3cnc(-c4ccc(C[C@H](NC(=O)c5ccc(C(C)(C)C)s5)C(=O)N[C@H](C)C(=O)O)cc4)nc3)cc2)cc1 [Compound 1308] is ____.
Reply text: 800 to 2500 nM

Inquiry: Fill blank: measured EC50 of the molecule CCCCc1ccc(C2CCN(c3cnc(-c4ccc(C[C@H](NC(=O)c5ccc(C(C)(C)C)s5)C(=O)N5CC(C(=O)O)C5)cc4)nc3)C2)cc1 (stereo partly drawn) [Compound 1505] is ____.
Reply text: 800 to 2500 nM

Inquiry: Fill blank: measured EC50 of the molecule CCC[C@H]1CC[C@H](C2CCN(c3cnc(-c4ccc(C[C@H](NC(=O)c5ccc(C(C)(C)C)s5)C(=O)N5CCC(C(=O)O)CC5)cc4)nc3)CC2)CC1 [Compound 1457] is ____.
Reply text: < 800 nM

Inquiry: Fill blank: measured EC50 of the molecule COc1cccc(/C=C/c2cnc(-c3ccc(C[C@H](NC(=O)c4ccc(C(C)(C)C)s4)C(=O)N[C@H](C)C(=O)O)cc3)nc2)c1 [Compound 1263] is ____.
Reply text: 2500 to 5000 nM
